biological target: hEP1 (Homo sapiens, UniProt P34995); assay: FLIPR calcium signal, hEP1; settings: HEK-293 (EBNA) cells, read-out: FUNCTIONAL EC50 HEP1
Sequence (P34995 whole entry): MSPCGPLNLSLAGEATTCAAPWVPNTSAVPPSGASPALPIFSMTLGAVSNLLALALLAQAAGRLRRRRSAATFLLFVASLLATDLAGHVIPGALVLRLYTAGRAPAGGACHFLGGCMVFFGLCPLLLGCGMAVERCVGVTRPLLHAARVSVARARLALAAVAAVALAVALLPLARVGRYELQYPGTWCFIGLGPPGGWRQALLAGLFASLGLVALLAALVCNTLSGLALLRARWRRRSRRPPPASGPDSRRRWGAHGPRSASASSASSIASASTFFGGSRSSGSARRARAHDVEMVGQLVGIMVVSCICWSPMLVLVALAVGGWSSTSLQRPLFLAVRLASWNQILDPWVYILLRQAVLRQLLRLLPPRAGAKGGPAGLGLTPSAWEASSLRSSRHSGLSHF
pEC50: −log10 of the molar value.
property-name: pEC50

Look up pEC50 for this compound: CCCCC[C@H](O)/C=C/[C@H]1CCC(=O)[C@@H]1SCCCSCC(=O)O
< 5.00

###

Target: hEP4/Gqs5 (Homo sapiens)
Sequence (P35408 whole entry): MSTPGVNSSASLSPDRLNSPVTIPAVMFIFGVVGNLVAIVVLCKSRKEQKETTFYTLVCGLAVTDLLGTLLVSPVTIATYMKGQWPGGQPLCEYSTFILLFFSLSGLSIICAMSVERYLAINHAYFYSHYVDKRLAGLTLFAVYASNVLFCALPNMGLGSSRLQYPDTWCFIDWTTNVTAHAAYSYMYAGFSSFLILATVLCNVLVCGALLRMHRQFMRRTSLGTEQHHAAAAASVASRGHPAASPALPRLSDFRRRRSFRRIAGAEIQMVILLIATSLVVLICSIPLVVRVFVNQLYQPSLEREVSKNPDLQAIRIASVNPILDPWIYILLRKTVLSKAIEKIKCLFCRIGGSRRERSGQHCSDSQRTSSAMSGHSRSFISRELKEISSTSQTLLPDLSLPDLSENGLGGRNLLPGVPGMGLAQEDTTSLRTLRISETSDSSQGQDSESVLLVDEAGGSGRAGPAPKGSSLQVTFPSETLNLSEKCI
Experiment: FLIPR calcium signal, hEP4/Gqs5
Conditions: HEK-293 (EBNA) cells, read-out: FUNCTIONAL EC50 HEP4
Protocol: […] Cells were excited with an Argon laser at 488 nm, and emission was measured through a 510–570 nm bandwidth emission filter (FLIPR™, Molecular Devices, Sunnyvale, Calif.). […] The peak increase in fluorescence intensity was recorded for each well. […] The peak fluorescence change in each drug-containing well was then expressed relative to the controls. […]
Listing of entries alongside the reported EC50.
Numbers only; they are read as nM.

Use these answered entries as a reference point.
Need EC50, item COC(=O)CSCCCS[C@H]1C(=O)CC[C@@H]1/C=C/C(O)Cc1ccccc1 (single isomer, unassigned) [drawing 45]
15

Param item: COC(=O)CSCCCS[C@H]1C(=O)CC[C@@H]1/C=C/C(O)CCc1cc2ccccc2s1 (stereo partly drawn) [drawing 27]
7.8

Request: COC(=O)CSCCCS[C@H]1C(=O)CC[C@@H]1/C=C/C(O)CCc1ccc2ccccc2c1 (stereo partly drawn) [drawing 35]
0.6

What do we get for COC(=O)CSCCCS[C@H]1C(=O)CC[C@@H]1/C=C/C(O)CCc1ccc2ccccc2c1 (stereo partly drawn) [drawing 34] ?
0.5

Quick one: O=C(O)CSCCCS[C@H]1C(=O)C[C@@H](CO)[C@@H]1/C=C/C(O)Cc1ccccc1 (single isomer, unassigned) [Compound 151]
59

Others:
Look up EC50 for this compound: COC(=O)CSCCCS[C@H]1C(=O)CC[C@@H]1/C=C/C(O)CCc1cc2ccccc2s1 (stereo partly drawn) [drawing 28]
11
